TARGET_UNDER_TEST: T1, biotinylated GITR (human, UniProt Q9Y5U5 26-161, limits assumed, biotinylated (sites not given))
T1 construct: also called GITR-bio; Biotin-GITR
T1 sequence: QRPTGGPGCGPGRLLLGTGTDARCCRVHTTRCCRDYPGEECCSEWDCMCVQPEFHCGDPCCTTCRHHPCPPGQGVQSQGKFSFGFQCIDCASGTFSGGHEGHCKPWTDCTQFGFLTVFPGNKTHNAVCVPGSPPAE
ASSAY_METHOD_TEXT: BLI (Octet), biotin-GITR on streptavidin tips, antibody supernatant
Catalogue of log10 of Kd values
OUTCOME_MEASURE: log10 of Kd (log10 of the value in nM)

# BINDER, OUTCOME_MEASURE, MEASUREMENT
rows = [
    ("germline variant antibody 31 (H1916D01 / K1916D01) (antibody, V domains shown, IGHG1/IGKC expression vectors; measured from CHO culture supernatant; also called Antibody ID 31) VH: QVQLVQSGTEVKKPGASVKVSCKGSGYTFTEYAMYWVRQAPGQGLEWMGLIRTFSGGLTYNQKFKDRVTMTVDKSISTAYMELSRLRSDDTAVYYCAKSGTVRGFAYWGQGIPVTVSS VL: DIVMTQSPDSLAVSLGERATINCKSSQSLLNSSNQKNYLTWYQQKPGQPPKLLIYWASTRESGVPDRFTGSGSGTDFTLTISSLQAEDVAVYHCQNDYSYPYTFGQGTKLEIK", "log10 of Kd", -0.38),
    ("germline variant antibody 59 (H1916G05 / K1916G05) (antibody, V domains shown, IGHG1/IGKC expression vectors; measured from CHO culture supernatant; also called Antibody ID 59) VH: QVQLVQSGAEVKKPGASVKVSCKASGYTFTEYAMYWVRQAPGQGLEWMGLIRTYSGGVSYNQKFRDRVTMTVDKSISTAYMELSRLRSDDTAVYYCAKSGTVRGFAYWGQGTLVTVSS VL: DIVMTQSPDSLAVSLGERATINCKSSQSLLNSSNQKNYLSWYHQKPGQPPKLLIYWASTRESGVPDRFSGSGSGTDFTLTISSVQAEDVAVYHCQNDYSYPYTFGQGTKLEIK", "log10 of Kd", 0.02),
    ("germline variant antibody 105 (H1917H07 / K1917H07) (antibody, V domains shown, IGHG1/IGKC expression vectors; measured from CHO culture supernatant) VH: QVQLVQSGAEVKKPGASVKVSCKGSGYTFTEYAMYWVRQAPGQGLEWMGLIRTFSGGVSYNQKFKGRVTMTVDTSISTAYMELSRLRSDDTAVYYCAKSGTVRGFAYWGQGTLVTVSS VL: DIVMTQSPDSLAVSLGERATINCKSSQSLLNSGNQKNYLSWYQQKPGQPPKLLIYWASTRESGVPDRFSGSGSGTDFTLTISSVQAEDVAVYYCQNDYSYPYTFGQGTKLEIK", "log10 of Kd", 0.14),
    ("germline variant antibody 33 (H1916D03 / K1916D03) (antibody, V domains shown, IGHG1/IGKC expression vectors; measured from CHO culture supernatant; also called Antibody ID 33) VH: QVQLVQSGAEVKKPGASVKVSCKASGYTFTGYAMYWVRQAPGQGMEWIGLIRTYSGGVTYNQKFQGRVTMTVDTSISTAYMELSRLRSDDTAVYYCAKSGTVRGFAYWGQGTLVTVSS VL: DIVMTQSPDSLAVSLGERATINCKSSQSLLNSGNQKNYLSWYHQKPGQPPKLLIYWASTRESGVPDRFSGSGSGTDFTLTISSVQAEDVAVYHCQNEYSYPYTFGQGTKLEIK", "log10 of Kd", -1.05),
    ("germline variant antibody 55 (H1916F10 / K1916F10) (antibody, V domains shown, IGHG1/IGKC expression vectors; measured from CHO culture supernatant; also called Antibody ID 55) VH: QVQLVQSGTEVKKPGASVKVSCKASGYTFTDYAMYWVRQAPGQGLEWIGLIRTYSGGVTYNQKFQGRVTMTVDTSISTAYMELSRLRSDDTAVYYCAKSGTVRGFAYWGQGTLVTVSS VL: DIVMTQSPDSLAVSLGERATINCKSSQSLLNSGNQKNYLSWYQQKPGQPPKLLIYWASTRESGVPDRFSGSGSGTDFTLTISSVQAEDVAVYHCQNDYSFPYTFGQGTKLEIK", "log10 of Kd", 0.10),
    ("germline variant antibody 70 (H1917B04 / K1917B04) (antibody, V domains shown, IGHG1/IGKC expression vectors; measured from CHO culture supernatant; also called Antibody ID 70) VH: QVQLVQSGTEVKKPGASVKVSCKASGYTFTGYAMYWVRQAPGQGMEWIGVIRTYSGDVTYNQKFKDRATMTVDTSISTAYMELSRLRSDDTAVYYCAKSGTVRGFAYWGQGTLVTVSS VL: DIVMTQSPDSLAVSLGERATINCKSSQSLLNSGNQKNYLSWYQQKPGQPPKLLIYWASTRESGVPDRFSGSGSGTDFTLTISSLQAEDVAVYHCQNDYSFPYTFGQGTKLEIK", "log10 of Kd", 0.30),
    ("germline variant antibody 76 (H1917C10 / K1917C10) (antibody, V domains shown, IGHG1/IGKC expression vectors; measured from CHO culture supernatant; also called Antibody ID 76) VH: QVQLVQSGAGVKKPGASVKVSCKGSGYTFTDYAMHWVRQAPGQGLEWMGLIRTFSGDVSYNQKFRERATMTVDKSISTAYMELSRLRSDDTAVYYCAKSGTVRGFAYWGQGTLVTVSS VL: DIVMTQSPDSLAVSLGERATINCKSSQSLLNSGNQKNYLSWYQQKPGQPPKMLIYWASTRESGVPDRFSGSGSGTDFTLTISSVQAEDVAVYHCQNDYSFPYTFGQGTKLEIK", "log10 of Kd", 0.43),
    ("germline variant antibody 36 (H1916D06 / K1916D06) (antibody, V domains shown, IGHG1/IGKC expression vectors; measured from CHO culture supernatant; also called Antibody ID 36) VH: QVQLVQSGAEVKKPGASVKVSCKGSGYTFTDYAMYWVRQAPGQGMEWIGVIRTFSGGVSYNQKFRDRVTMTVDKSISTAYMELSRLRSDDTAVYYCAKSGTVRGFAYWGQGTLVTVSS VL: DIVMTQSPDSLAVSLGERATINCKSSQSLLNSSNQKNYLTWYHQKPGQPPKMLIYWASTRESGVPDRFSGSGSGTDFTLTISSVQEEDVAVYHCQNDYSFPYTFGQGTKLEIK", "log10 of Kd", -0.36),
    ("germline variant antibody 37 (H1916D07 / K1916D07) (antibody, V domains shown, IGHG1/IGKC expression vectors; measured from CHO culture supernatant; also called Antibody ID 37) VH: QVQLVQSGTEVKKPGASVKVSCKGSGYTFTEYAMYWVRQAPGQGMEWIGLIRTFSGEVTYNQKFKDRVTMTVDTSISTAYMELSRLRSDDTAVYYCAKSGTVRGFAYWGQGTLVTVSS VL: DIVMTQSPDSLAVSLGERATINCKSSQSLLNSGNQKNYLTWYQQKPGQPPKLLIYWASTRESGVPDRFTGSGSGTDFTLTISSLQAEDVAVYHCQNEYSYPYTFGQGTKLEIK", "log10 of Kd", -1.50),
    ("germline variant antibody 92 (H1917F05 / K1917F05) (antibody, V domains shown, IGHG1/IGKC expression vectors; measured from CHO culture supernatant; also called Antibody ID 92) VH: QVQLVQSGAEVKKPGASVKVSCKGSGYTFTEYAMYWVRQAPGQGLEWMGLIRTFSGGVTYNQKFQGRATMTVDTSISTAYMELSRLQSDDTAVYYCAKSGTVRGFAYWGQGTLVTVSS VL: DIVMTQSPDSLAVSLGERATINCKSSQSLLNSGNQKNYLTWYHQKPGQPPKMLIYWASTRESGVPDRFSGSGSGTNFTLTISSVQAEDVAVYHCQNDYSYPYTFGQGTKLEIK", "log10 of Kd", 0.00),
]
